target: UniProt:Q923Y9; assay: Activity at rat TAAR1 expressed in HEK293 cells assessed as cAMP production; type: functional, cell-based
Sequence (Q923Y9 whole entry): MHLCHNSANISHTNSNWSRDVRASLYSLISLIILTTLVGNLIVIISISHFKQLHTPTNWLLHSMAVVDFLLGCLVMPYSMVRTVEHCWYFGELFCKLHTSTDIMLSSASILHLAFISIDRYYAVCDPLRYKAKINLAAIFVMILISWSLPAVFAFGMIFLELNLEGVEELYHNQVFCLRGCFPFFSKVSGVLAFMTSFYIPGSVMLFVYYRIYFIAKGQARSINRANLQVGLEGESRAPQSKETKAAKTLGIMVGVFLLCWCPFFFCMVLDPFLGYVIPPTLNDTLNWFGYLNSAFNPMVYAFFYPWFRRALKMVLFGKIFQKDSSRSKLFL
Threshold 40 nM. EC50 below it: yes (1). EC50 at it or above: no (0).

Example results:
>  <compound>
NCC(C#Cc1ccccc1)c1ccc(Oc2ccccc2)cc1 (centres undefined)

>  <system.under.test>
UniProt:Q923Y9

>  <class>
no (0)

$$$$
>  <compound>
NCC(Cc1ccccc1)c1ccc(Oc2ccccc2)cc1 (centres undefined)

>  <system.under.test>
UniProt:Q923Y9

>  <class>
no (0)

$$$$
>  <compound>
COc1ccc(C(CN)c2ccccc2)c2ccccc12 (centres undefined)

>  <system.under.test>
UniProt:Q923Y9

>  <class>
no (0)

$$$$

Q) Check if EC50 falls below 40 nM for NCC(c1ccccc1)c1ccc(Oc2ccccc2)c2ccccc12 (centres undefined) .
A) no (0)

Q) Check if EC50 falls below 40 nM for NCC(c1ccccc1)c1cccc(Oc2ccccc2)c1 (centres undefined) .
A) yes (1)

Q) Check if EC50 falls below 40 nM for `NCCc1ccc(Oc2ccc(O)cc2)c(I)c1` .
A) yes (1)

Q) Check if EC50 falls below 40 nM for `CC(C)(CN)c1ccc(Oc2ccccc2)cc1` .
A) no (0)

Q) Check if EC50 falls below 40 nM for CC(CN)c1ccc(Oc2ccccc2)cc1 (centres undefined) .
A) no (0)

Q) Check if EC50 falls below 40 nM for NCC(c1ccccc1)c1ccc(O)c2ccccc12 (centres undefined) .
A) no (0)

Q) Check if EC50 falls below 40 nM for `NCCc1ccc(Oc2ccccc2)c2ccccc12` .
A) yes (1)
